Target protein (sequence): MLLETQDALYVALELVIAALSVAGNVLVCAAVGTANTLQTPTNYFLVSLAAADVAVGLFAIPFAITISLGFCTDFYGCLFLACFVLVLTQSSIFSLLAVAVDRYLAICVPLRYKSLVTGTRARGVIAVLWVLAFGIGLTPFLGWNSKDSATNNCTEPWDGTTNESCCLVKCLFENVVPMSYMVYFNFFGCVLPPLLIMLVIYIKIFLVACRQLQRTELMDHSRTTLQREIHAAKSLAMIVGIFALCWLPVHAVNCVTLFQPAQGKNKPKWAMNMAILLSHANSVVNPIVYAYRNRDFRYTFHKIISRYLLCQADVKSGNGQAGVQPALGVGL
PROPERTY_NAME: pKi
Scale: pKi equals -log10([C]), with [C] in mol/L.

IN: GET /values?readout=pKi&item= Cn1cncc1-c1nc2cc(-c3ccncc3F)c(-c3cccnc3)nc2[nH]1
OUT: 8.02
